# measurement.protocol: Cytotoxicity on NCTC-Clone 929 fibroblasts (resazurin)
# Type: cell-based
# particulars: mouse
// IC50 at 24 h lookup, one value per entry

Solved cases (2 shown):
COc1ccc(-n2cc(CCC(=O)OC[C@]3(C)CCC[C@]4(C)c5ccc(C(C)C)cc5CCC34)nn2)cc1 (stereo partly drawn) [Compound 11] : > 256 µg/mL
C#CCCCC(=O)O[C@H]1CC[C@@]2(C)C(CC[C@]3(C)C2CC=C2[C@@H]4CC(C)(C)CC[C@]4(C(=O)O)CC[C@]23C)C1(C)C (stereo partly drawn) [Compound 19] : > 256 µg/mL

Query :: Which IC50 at 24 h value belongs to CC(C)c1ccc2c(c1)CCC1[C@](C)(COC(=O)CCCCc3cn(Cc4cccc(Cl)c4)nn3)CCC[C@]21C (stereo partly drawn) [Compound 14] ?
Result :: > 256 µg/mL

* * *

# Tested on: L. braziliensis promastigotes
# measurement.protocol: Leishmanicidal activity on L. braziliensis promastigotes (resazurin)
# Assay type: cell-based, Leishmania braziliensis
# particulars: Leishmania braziliensis; promastigotes, 48 h; read-out: Leishmanicidal Activity on Promastigotes, L. braziliensis, IC50
readout.label: IC50 (µg/mL)
The reply should be a number in µg/mL, with the unit left off.

Example results:
CC(C)c1ccc2c(c1)CC[C@H]1[C@](C)(C(=O)O)CCC[C@]21C [DHA, Dehydroabietic acid] : 44
Cc1ccc(S(=O)(=O)n2cc(CCC(=O)OC[C@]3(C)CCC[C@]4(C)c5ccc(C(C)C)cc5CCC34)nn2)cc1 (stereo partly drawn) [Compound 15] : 89
CC(C)c1ccc2c(c1)CCC1[C@](C)(C(=O)OCc3cn(-c4ccccc4)nn3)CCC[C@]21C (stereo partly drawn) [Compound 1] : 53
CC(C)c1ccc2c(c1)CCC1[C@](C)(COC(=O)CCc3cn(-c4ccccc4)nn3)CCC[C@]21C (stereo partly drawn) [Compound 5] : 218

Query :: Given the entry CC(C)c1ccc2c(c1)CCC1[C@](C)(COC(=O)CCc3cn(Cc4cccc(Cl)c4)nn3)CCC[C@]21C (stereo partly drawn) [Compound 13] , what IC50 was observed with L. braziliensis promastigotes?
Result :: 242

Query :: Query IC50 on L. braziliensis promastigotes for CC(C)c1ccc2c(c1)CCC1[C@](C)(C(=O)OCCc3cn(CSc4ccccc4)nn3)CCC[C@]21C (stereo partly drawn) [Compound 4]
Result :: 64

Query :: Query the reported IC50 for L. braziliensis promastigotes; item: N=C(N)c1ccc(OCCCCCOc2ccc(C(=N)N)cc2)cc1 [Pentamidine, reference compound]
Result :: 3.3

Hey, just so you know, these numbers are from paper PMC6155273.
